Source: ChEMBL document CHEMBL1157789

target: Serine/threonine-protein kinase PLK1 (Homo sapiens) (UniProt P53350); assay: Inhibition of PLK1 at 10 uM
Sequence (P53350 whole entry): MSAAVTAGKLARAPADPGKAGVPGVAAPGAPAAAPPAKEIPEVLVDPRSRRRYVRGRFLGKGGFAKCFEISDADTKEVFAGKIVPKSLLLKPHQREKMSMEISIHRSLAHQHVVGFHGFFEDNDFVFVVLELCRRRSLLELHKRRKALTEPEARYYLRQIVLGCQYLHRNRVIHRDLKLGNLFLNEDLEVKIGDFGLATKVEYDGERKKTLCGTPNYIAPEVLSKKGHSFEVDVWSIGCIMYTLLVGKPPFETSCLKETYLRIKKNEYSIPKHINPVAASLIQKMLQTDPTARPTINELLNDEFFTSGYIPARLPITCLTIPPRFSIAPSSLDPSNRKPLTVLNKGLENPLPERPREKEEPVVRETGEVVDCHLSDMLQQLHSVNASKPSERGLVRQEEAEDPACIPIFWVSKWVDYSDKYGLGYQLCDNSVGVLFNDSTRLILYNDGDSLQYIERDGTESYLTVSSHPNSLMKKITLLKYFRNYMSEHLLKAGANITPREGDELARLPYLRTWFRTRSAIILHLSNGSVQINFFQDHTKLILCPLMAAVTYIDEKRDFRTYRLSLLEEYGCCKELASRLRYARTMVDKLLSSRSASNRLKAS
Activity calls are given as the source filed them. The calls are words filed in the database; no cut-off is given here.
ASSAY READOUT: inhibition

{"SMILES RECORD": "Nc1cc(F)ccc1Nc1ccc2c(c1)Cc1ccccc1C(=O)C2", "ASSAY READOUT": "inhibition", "RESULT": "inactive"}
{"SMILES RECORD": "Nc1cc(F)ccc1Nc1ccc2c(c1)Cc1ccccc1CC2=O", "ASSAY READOUT": "inhibition", "RESULT": "inactive"}
{"SMILES RECORD": "Nc1ccc(Nc2ccc3c(c2)Cc2ccccc2CC3=O)cc1", "ASSAY READOUT": "inhibition", "RESULT": "inactive"}
{"SMILES RECORD": "Nc1ccccc1Nc1ccc2c(c1)C(=O)Cc1ccccc1C2", "ASSAY READOUT": "inhibition", "RESULT": "inactive"}

----------
target: Casein kinase II subunit alpha (Homo sapiens); test: Inhibition of CK2alpha1 at 10 uM
Calls of active or inactive are those of the source. The rule behind the calls is not given here.
ASSAY READOUT: inhibition

Sample records with inhibition:
{"SMILES RECORD": "Nc1ccccc1Nc1ccc2c(c1)Cc1ccccc1C(=O)C2", "MEASUREMENT TARGET": "Casein kinase II subunit alpha (Homo sapiens)", "ASSAY READOUT": "inhibition", "RESULT": "inactive"}
{"SMILES RECORD": "O=C1Cc2ccccc2Cc2cc(Nc3ccc(F)cc3F)ccc21", "MEASUREMENT TARGET": "Casein kinase II subunit alpha (Homo sapiens)", "ASSAY READOUT": "inhibition", "RESULT": "inactive"}
{"SMILES RECORD": "Nc1ccccc1Nc1ccc2c(c1)C(=O)Cc1ccccc1C2", "MEASUREMENT TARGET": "Casein kinase II subunit alpha (Homo sapiens)", "ASSAY READOUT": "inhibition", "RESULT": "inactive"}
{"SMILES RECORD": "Nc1ccccc1Nc1ccc2c(c1)CC(=O)c1ccccc1C2", "MEASUREMENT TARGET": "Casein kinase II subunit alpha (Homo sapiens)", "ASSAY READOUT": "inhibition", "RESULT": "inactive"}
{"SMILES RECORD": "Nc1ccc(Nc2ccc3c(c2)Cc2ccccc2CC3=O)cc1", "MEASUREMENT TARGET": "Casein kinase II subunit alpha (Homo sapiens)", "ASSAY READOUT": "inhibition", "RESULT": "inactive"}

Proceeding to the next molecule to report its inhibition.
The reported inhibition of the molecule `Nc1ccccc1Nc1ccc2c(c1)Cc1ccccc1CC2=O` was inactive

----------
target: Hepatocyte growth factor receptor (Homo sapiens); experiment: Inhibition of MET at 10 uM
Calls of active or inactive are those of the source. The rule behind the calls is not given here.
ASSAY READOUT: inhibition

Sample records with inhibition:
{"SMILES RECORD": "Nc1ccccc1Nc1ccc2c(c1)Cc1ccccc1CC2=O", "inhibition": "inactive"}
{"SMILES RECORD": "Nc1ccccc1Nc1ccc2c(c1)Cc1ccccc1C(=O)C2", "inhibition": "inactive"}
{"SMILES RECORD": "O=C1Cc2cc(Nc3ccccc3)ccc2Cc2ccccc21", "inhibition": "inactive"}
{"SMILES RECORD": "O=C1Cc2ccccc2Cc2cc(Nc3ccccc3)ccc21", "inhibition": "inactive"}
{"SMILES RECORD": "Nc1ccccc1Nc1ccc2c(c1)C(=O)Cc1ccccc1C2", "inhibition": "inactive"}

Proceeding to the next compound to report its inhibition.
The reported inhibition of the compound `Nc1ccc(Nc2ccc3c(c2)Cc2ccccc2CC3=O)cc1` was inactive
